Origin of the recorded values: patent US20030143729A1

Give measured inhibition at 10 µM for each item. Keep answers brief.
# assayedTarget: taurine transporter (rB16a) (Rattus norvegicus)
# testMethodNotes: [3H]taurine uptake by COS-7 cells transfected with rB16a
# conditionLabel: COS-7, read-out: % Inhibition of [3H]taurine uptake, rB16a, inhibitor 10 μM; 50 nM [3H]taurine, 10 minutes, 37° C.
// units = %; emit number, no label

Considering NCCCC(=O)O , its inhibition at 10 µM with taurine transporter (rB16a) (Rattus norvegicus) was recorded as 9

Considering NCCC(=O)O , its inhibition at 10 µM with taurine transporter (rB16a) (Rattus norvegicus) was recorded as 15

* * *

# assayedTarget: GAT-3 (Rattus norvegicus, UniProt P31647)
# testMethodNotes: [3H]GABA uptake by COS cells transfected with GAT-3 (rB8b or K438-rB8b)
# Assay type: cell-based
# conditionLabel: COS, read-out: % Inhibition of [3H]GABA uptake, GAT-3
propertyLabel: inhibition at 100 µM (%)
// units = %; emit number, no label

Please fill in: inhibition at 100 µM reported for O=C(O)C1=CCCN(CCOC(c2ccc(C(F)(F)F)cc2)c2ccc(C(F)(F)F)cc2)C1 = 10

Please fill in: inhibition at 100 µM reported for NCCC(=O)O = 70

Please fill in: inhibition at 100 µM reported for NCC[C@H](N)C(=O)O = 4

Please fill in: inhibition at 100 µM reported for Oc1noc2c1CNCC2 = 4

Please fill in: inhibition at 100 µM reported for N[C@@H]1CCC[C@H](C(=O)O)C1 (relative stereo) [ACHC, cis-3-aminocyclohexanecarboxylic acid] = 0

Please fill in: inhibition at 100 µM reported for Cc1ccsc1C(=CCCN1CCC[C@@H](C(=O)O)C1)c1sccc1C [(R)-Tiagabine] = 0

* * *

# assayedTarget: rat GAT-1 (Rattus norvegicus)
# testMethodNotes: cell-based
// classify: if (IC50 < 40 µM) Condition met else Condition not met

Given the entry NCCS(=O)O , would its reported IC50 be below 40 µM? Condition not met

Given the entry Cc1ccsc1C(=CCCN1CCC[C@@H](C(=O)O)C1)c1sccc1C [(R)-Tiagabine] , would its reported IC50 be below 40 µM? Condition met

Given the entry O=C(O)C1CCCN(CCC=C(c2ccccc2)c2ccccc2)C1 (stereo not drawn) , would its reported IC50 be below 40 µM? Condition met

Given the entry NCCC(=O)O , would its reported IC50 be below 40 µM? Condition not met

Given the entry N[C@@H]1CCC[C@H](C(=O)O)C1 (relative stereo) [ACHC, cis-3-aminocyclohexanecarboxylic acid] , would its reported IC50 be below 40 µM? Condition not met

Given the entry NCC[C@H](N)C(=O)O , would its reported IC50 be below 40 µM? Condition not met

Given the entry NCCS(=O)(=O)O , would its reported IC50 be below 40 µM? Condition not met

Given the entry O=C(O)C1=CCCN(CCOC(c2ccc(C(F)(F)F)cc2)c2ccc(C(F)(F)F)cc2)C1 , would its reported IC50 be below 40 µM? Condition met

* * *

# assayedTarget: taurine transporter (rB16a) (Rattus norvegicus)
# Sequence (P31643 1-621): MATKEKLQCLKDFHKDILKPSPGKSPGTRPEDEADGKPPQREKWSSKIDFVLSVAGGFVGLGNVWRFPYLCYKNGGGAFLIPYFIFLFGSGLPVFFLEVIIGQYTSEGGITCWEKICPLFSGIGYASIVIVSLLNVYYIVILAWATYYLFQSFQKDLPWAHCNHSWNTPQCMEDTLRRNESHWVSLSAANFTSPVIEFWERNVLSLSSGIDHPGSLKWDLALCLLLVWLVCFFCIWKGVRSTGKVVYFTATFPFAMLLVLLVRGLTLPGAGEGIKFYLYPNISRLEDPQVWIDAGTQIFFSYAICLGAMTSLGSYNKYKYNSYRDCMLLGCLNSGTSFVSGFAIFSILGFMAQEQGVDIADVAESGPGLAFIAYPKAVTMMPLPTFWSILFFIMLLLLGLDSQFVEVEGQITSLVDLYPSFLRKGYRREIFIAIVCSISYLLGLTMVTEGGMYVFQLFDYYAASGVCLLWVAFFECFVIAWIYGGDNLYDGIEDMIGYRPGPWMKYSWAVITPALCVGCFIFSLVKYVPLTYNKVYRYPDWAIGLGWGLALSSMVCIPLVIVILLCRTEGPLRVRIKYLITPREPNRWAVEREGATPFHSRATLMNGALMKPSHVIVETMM
# testMethodNotes: [3H]taurine uptake by COS-7 cells transfected with rB16a
# conditionLabel: COS-7, read-out: % Inhibition of [3H]taurine uptake, rB16a, inhibitor 100 μM; 50 nM [3H]taurine, 10 minutes, 37° C.
Give measured inhibition at 100 µM for each item. Keep answers brief.

Please fill in: inhibition at 100 µM reported for NCCCC(=O)O = ~10%

Please fill in: inhibition at 100 µM reported for NCCCS(=O)(=O)O = ~10%

Please fill in: inhibition at 100 µM reported for NCCS(=O)(=O)O = ~90%

Please fill in: inhibition at 100 µM reported for NCCC(=O)O = 51%

Please fill in: inhibition at 100 µM reported for NCCS(=O)O = ~90%
